# System: Zika virus NS2B-NS3 protease (unlinked complex)
# assay.comment: Primary screen GU Rhodamine qHTS for Zika virus inhibitors: Unlinked NS2B-NS3 protease assay (AID 1347159); further: on the % scale 0 is the no-effect control and ±100 the full control effect; nearly all actives have a fitted effect of over 60% in size
# particulars: Recombinant ZIKV NS2B-NS3 protease, Rhodamine110 substrate fluorescence; series mostly up to 107 µM
Records with an inconclusive call do not appear. Calls of active or inactive are those of the source. The call rests on the fitted dose curve; in most records, active means well fitted inhibition curve with a large enough effect; inconclusive means small, poorly fitted or top-dose-only effect; inactive means no such curve, though single readings can be large or run the other way. Where a SMILES comes first, the peptide text is derived from it. [ ]: non-standard residue; d: D form. Hyp = O=C(O)[CH]1C[CH](O)CN1; Phe(ol) = N[CH](CO)Cc1ccccc1; Iva = CC[C](C)(N)C(=O)O; Aib = CC(C)(N)C(=O)O
Listing: activity change, negative = inhibition of selected compounds
measurement.label: activity change, negative = inhibition

[[record]]
compound = "CC(=O)O[C@@H]1[C@H](O[C@@H]2O[C@@H](CO)[C@H](O)[C@H]2O)[C@@H](O[C@@H]2O[C@@H](C)[C@H](O[C@@H]3OC[C@@H](O)[C@H](O)[C@H]3O)[C@@H](O)[C@H]2O)[C@H](OC(=O)[C@]23CCC(C)(C)C[C@H]2C2=CCC4[C@@]5(C)CC[C@H](O[C@@H]6O[C@H](C(=O)O)[C@@H](O)[C@H](O)[C@H]6O[C@@H]6O[C@H](CO)[C@H](O)[C@H](O)[C@H]6O)[C@@](C)(C=O)C5CC[C@@]4(C)[C@]2(C)C[C@H]3O)O[C@@H]1C (some centres not stated)"
obs_value = "1.92% [at 19.1 µM] (inactive)"

[[record]]
compound = "C=C1CO[C@@]2(O[C@H]3CC4C5CC=C6C[C@@H](O)C[C@@H](O[C@@H]7OC[C@H](O)[C@H](O[C@@H]8OC[C@@H](O)[C@H](O)[C@H]8O)[C@H]7O[C@@H]7O[C@@H](C)[C@H](OC(C)=O)[C@@H](OC(C)=O)[C@H]7OC(C)=O)[C@]6(C)C5CC[C@]4(C)[C@@H]3[C@@H]2C)[C@@H](O)[C@H]1OC1OC(C)C(O)C(O)C1O (some centres not stated)"
obs_value = "-10.8% [at 19.1 µM] (inactive)"

[[record]]
compound = "CC1OC(OC2C(O)COC(O[C@@H]3[C@@H](O)[C@@H](O)[C@H](OC4C(OC(=O)[C@]56CCC(C)(C)CC5C5=CCC7[C@@]8(C)C[C@H](O)[C@H](OC9OC(CO)C(O)C(O)C9O)[C@@](C)(CO)C8[C@H](O)C[C@@]7(C)[C@]5(C)CC6)OCC(O)C4O)O[C@H]3C)C2O)C(O)C(O)C1O (some centres not stated)"
obs_value = "8.24% [at 19.1 µM] (inactive)"

[[record]]
compound = "CNC1CN(c2ccc3c(=O)c(C(=O)O)cn(-c4nccs4)c3n2)CC1OC (configuration not stated)"
obs_value = "18.7% [at 19.1 µM] (inactive)"

[[record]]
compound = "C=CC(C)(O)CC/C=C(\\C)C(=O)OC1C(O)C(CO)OC(OC(=O)C23CCC(C)(C)CC2C2=CCC4C5(C)CCC(OC6OC(COC7OCC(OC(C)=O)C(O)C7OC7OC(COC(C)=O)C(O)C(O)C7OC(C)=O)C(O)C(O)C6OC6OCC(O)C(O)C6O)C(C)(C)C5CCC4(C)C2(C)C(O)C3O)C1OC1OCC(OC2OCC(O)C(OC3OCC(O)C(O)C3O)C2O)C(O)C1O (configuration not stated)"
obs_value = "23.6% [at 19.1 µM] (inactive)"

[[record]]
compound = "CC(=O)O[C@H]1CC(C)(C)CC2[C@]13CO[C@@]21CCC2[C@@]4(C)CC[C@H](O[C@@H]5OC[C@H](O[C@@H]6O[C@H](CO)[C@@H](O)[C@H](O)[C@H]6O[C@@H]6OC[C@@H](O[C@@H]7O[C@H](CO)[C@@H](O)[C@H](O)[C@H]7O)[C@H](O)[C@H]6O)[C@H](O)[C@H]5O[C@@H]5O[C@H](CO)[C@@H](O)[C@H](O)[C@H]5O)[C@@](C)(CO)C4CC[C@@]2(C)[C@]1(C)C[C@H]3O (some centres not stated)"
obs_value = "0.509% [at 19.1 µM] (inactive)"

[[record]]
compound = "CCC(C)(NC(=O)C(CCC(N)=O)NC(=O)C1CC(O)CN1C(=O)C(C)(C)NC(=O)C(C)(C)NC(=O)C(CC(C)C)NC(=O)CNC(=O)C(NC(=O)C(C)(C)NC(=O)C(C)(C)NC(=O)C(C)(C)NC(=O)C(Cc1ccccc1)NC(C)=O)C(C)C)C(=O)N1CC(O)CC1C(=O)NC(C)(C)C(=O)NC(CO)Cc1ccccc1 (configuration not stated) (Ac-F[Aib][Aib][Aib]VGL[Aib][Aib][Hyp]Q[Iva][Hyp][Aib][Phe(ol)]; configuration not given here)"
obs_value = "8.8% [at 19.1 µM] (inactive)"

